Target: Opioid receptor (Rattus norvegicus, UniProt P33533+P34975+P33535)
Assay: Affinity for the opioid receptor by displacement of tritiated naloxone from rat brain membranes.
Type: cell membranes, Membrane
Field 'label' (enum: class 1 / class 0). Set to class 1 when IC50 is strictly under 0.6 nM; else class 0.

For orientation, consider the following solved cases.
{"molecule": "Cc1cc(OCc2ccc(F)cc2)cc(C)c1CC(N)C(=O)N[C@H](C)C(=O)NCCCc1ccccc1 (some centres undefined)", "label-value": "class 0"}
{"molecule": "Cc1cc(OCc2ccc(C(C)(C)C)cc2)cc(C)c1CC(N)C(=O)N[C@H](C)C(=O)NCCCc1ccccc1 (some centres undefined)", "label-value": "class 1"}
{"molecule": "Cc1cc(O)cc(C)c1CC(N)C(=O)N(CC1CC1)[C@H](C)C(=O)NCCCc1ccccc1 (some centres undefined)", "label-value": "class 0"}
{"molecule": "Cc1cc(O)cc(C)c1CC(N)C(=O)N[C@H](C)C(=O)NCCCc1ccccc1 (some centres undefined)", "label-value": "class 1"}

Enquiry: In plain terms, does Cc1cc(OCc2ccccc2)cc(C)c1C[C@@H](N)C(=O)N[C@H](C)C(=O)NCCCc1ccccc1 come in under 0.6 nM for IC50?
Return: class 0

Enquiry: Is it true that IC50 reported for COc1cc(C)c(C[C@H](N)C(=O)N[C@H](C)C(=O)NCCCc2ccccc2)c(C)c1 (stereo in doubt; 20b) is less than 0.6 nM?
Return: class 0

Enquiry: I wonder whether COc1cc(C)c(CC(N)C(=O)N[C@H](C)C(=O)NCCCc2ccccc2)c(C)c1 (some centres undefined) has IC50 below 0.6 nM. Can you tell?
Return: class 0

Enquiry: Please indicate whether the reported IC50 of CNC(Cc1c(C)cc(OCc2ccccc2)cc1C)C(=O)N[C@H](C)C(=O)NCCCc1ccccc1 (some centres undefined) is strictly below 0.6 nM.
Return: class 0

---

Kindly state IC50 for each of the entries shown.
Target: Delta-type opioid receptor (Rattus norvegicus, UniProt P33533)
Sequence (P33533 whole entry): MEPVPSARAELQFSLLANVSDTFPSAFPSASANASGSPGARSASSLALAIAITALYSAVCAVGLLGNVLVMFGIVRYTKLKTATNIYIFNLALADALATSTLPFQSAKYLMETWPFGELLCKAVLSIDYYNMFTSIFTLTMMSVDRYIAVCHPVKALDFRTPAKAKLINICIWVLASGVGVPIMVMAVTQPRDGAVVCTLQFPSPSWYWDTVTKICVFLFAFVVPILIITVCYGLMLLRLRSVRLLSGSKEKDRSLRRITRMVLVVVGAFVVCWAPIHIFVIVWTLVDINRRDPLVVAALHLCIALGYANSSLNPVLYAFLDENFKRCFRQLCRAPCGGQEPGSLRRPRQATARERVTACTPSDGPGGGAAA
Assay: Inhibitory concentration was evaluated against delta opioid receptor by the displacement of tritiated DSLET from rat brain membranes
Format: cell membranes, Membrane
Numbers only, in µM.

Consider the reported IC50 for these molecules:
{"molecule": "Cc1cc(O)cc(C)c1CC(N)C(=O)N[C@H](C)C(=O)NCCCc1ccccc1 (some centres not stated)", "observable": "IC50", "reported-result": 0.00957}
{"molecule": "Cc1cc(OCc2ccccc2)cc(C)c1C[C@@H](N)C(=O)N[C@H](C)C(=O)NCCCc1ccccc1", "observable": "IC50", "reported-result": 1.8}

I'm hoping you can list IC50 for every molecule here, please.
1. Cc1cc(O)cc(C)c1CC(C)(N)C(=O)N[C@H](C)C(=O)NCCCc1ccccc1 (some centres not stated)
2. Cc1cc(O)cc(C)c1C[C@H](N)C(=O)N(CC1CC1)[C@H](C)C(=O)NCCCc1ccccc1 (stereo in doubt; 18b)
3. Cc1cc(O)cc(C)c1C[C@H](N)C(=O)N(C)[C@H](C)C(=O)NCCCc1ccccc1
4. COc1cc(C)c(C[C@H](N)C(=O)N[C@H](C)C(=O)NCCCc2ccccc2)c(C)c1 (stereo in doubt; 20b)
5. Cc1cc(OCc2ccccc2)cc(C)c1C[C@H](N)C(=O)N[C@H](C)C(=O)NCCCc1ccccc1

Return:
1: 0.124; 2: 0.01; 3: 0.008; 4: 2.09; 5: 0.133
